Recorded below: IC50, system fully phosphorylated, active Mouse ERK2 protein (Mus musculus (Mouse), UniProt P63085).
Answers are plain numbers, in µM.

# annotated cases, reported IC50 shown
{"Compound": "COc1cccc(F)c1C[C@@]1(O)CCC[C@@H](NC(=O)c2ccc3[nH]nc(-c4ccc(OC(C)C)cc4)c3c2)C1 [compound 26]", "Recorded value": 0.079}
{"Compound": "Cc1cc(-c2n[nH]c3ccc(C(=O)NC4CCCC(Cn5c(=O)ccc6ccccc65)C4)cc23)ccn1 (stereo not shown) [compound 121]", "Recorded value": 0.0372}
{"Compound": "Cc1cc(-c2n[nH]c3ccc(C(=O)NC4CCCC(Oc5ccccc5F)C4)cc23)ccn1 (single isomer, unassigned) [compound 27]", "Recorded value": 0.061}

Proceeding to the next compound to report its IC50.
Requested read-out: IC50. Entry: Cn1cc2cc(-c3n[nH]c4ccc(C(=O)NC5CCCC(Cn6ccnc6)C5)cc34)ccc2n1 (stereo not shown) [compound 108] 0.0293

This collection of values is drawn from patent US9351965B2.
